- TGT: tumor necrosis factor alpha (TNFα) (human, UniProt P01375 77-233)
- Sequence (P01375 77-233 limits assumed): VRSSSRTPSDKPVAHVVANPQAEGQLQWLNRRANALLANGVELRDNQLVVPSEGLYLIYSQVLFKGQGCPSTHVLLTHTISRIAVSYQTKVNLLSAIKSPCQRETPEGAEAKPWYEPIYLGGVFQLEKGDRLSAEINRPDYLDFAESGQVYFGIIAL
- PROCEDURE_SUMMARY: affinity by IC50 ELISA (so named in paragraph 380)
Kindly state Affinity for each of the entries shown.
One number for each entry, in nM.

[[record]]
binder = "MAb 715 (antibody, V domains shown, also called 141 F2; H1278/L250) VH: EVQLLESGGGLIQPGGSLRLSCAASGFTVSNNYMSWVRQAPGKGLQWVAVIYSGGSTYYPDSMKGRFTISRDNSKNTLYLQMNSLRAEDTAVYYCARNYYGSTYDYWGQGTLVTVSS VL: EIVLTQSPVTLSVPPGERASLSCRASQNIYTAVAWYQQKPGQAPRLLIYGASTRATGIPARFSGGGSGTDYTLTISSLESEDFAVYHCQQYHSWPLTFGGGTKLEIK"
reading = 0.6

[[record]]
binder = "MAb 695 (antibody, V domains shown, also called 121 D11; H1192/L250) VH: EVQLLESGGGLIQPGGSLRLSCAASGFTVSSNYMSWVRQAPGKGLEWVSVIYSGGRTYYADSVKGRFTISRDSSKNTLYLQMNSLRAEDTAVYYCARNYYGSTYDYWGQGTLVTVSS VL: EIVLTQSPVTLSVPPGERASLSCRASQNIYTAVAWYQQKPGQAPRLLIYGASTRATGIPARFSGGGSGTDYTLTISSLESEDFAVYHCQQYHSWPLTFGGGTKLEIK"
reading = 0.6

[[record]]
binder = "MAb 699 (antibody, V domains shown, also called 183 E9; H1273/L250) VH: EVQLLESGGGLIQPGGSLRLSCAASGFTVSSNYMSWVRQAPGKGLEWVSVIYSGGSTYYADSVKGRFTISRDNAKNTVYLQMNSLRSEDTAVYYCARNYYGSTYDYWGQGTLVTVSS VL: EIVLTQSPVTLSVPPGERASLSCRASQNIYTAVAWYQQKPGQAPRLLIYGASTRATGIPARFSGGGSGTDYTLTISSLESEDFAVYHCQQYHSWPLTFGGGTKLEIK"
reading = 7.3


Query :: Which measured Affinity value corresponds to MAb 805 (antibody, V domains shown, also called 156 H7; H1329/L250) VH: EVQLVESGGGLIQPGGSLRLSCAVSGLNVSRDYMSWVRQAPGKGLEWISVIYRGGATMYADSVKGRFTISRDTSKNTVFLQMSRLKVADTAVYYCARNYYGSTYDYWGQGTLVTVSS VL: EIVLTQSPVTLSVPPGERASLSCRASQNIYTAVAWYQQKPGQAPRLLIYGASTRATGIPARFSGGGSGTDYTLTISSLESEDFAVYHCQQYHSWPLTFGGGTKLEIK ?
Result :: 0.6
